target: Recombinant human cathepsin K (Homo sapiens, UniProt P43235); experiment: Inhibition of cathepsin K activity (Z-Phe-Arg-AMC fluorescence assay); settings: 25 uM Z-Phe-Arg-AMC, pH 5.5, 1 hour at 37° C.
Counter-ions that a name gives are not always drawn.
measured attribute: IC50 (nM)

Consider the reported IC50 for these compounds:
Ask: // returns reported IC50 for input CC1(C)CN(c2ccccc2N2CCC(NC(=O)C3(NC(=O)c4cc5ccccc5o4)CCCCC3)C(=O)C2)C1=O (stereo not drawn)
Reply: 4.97

Ask: Now give it for CC(=O)Nc1ccccc1N1CCC(NC(=O)C2(NC(=O)c3cc4ccccc4o3)CCCCC2)C(=O)C1 (stereo not drawn) too.
Reply: 1.62

Ask: Now give it for CS(=O)(=O)c1ccccc1N1CCC(NC(=O)C2(NC(=O)c3cc4ccccc4o3)CCCCC2)C(=O)C1 (stereo not drawn) too.
Reply: 8.17

P = CS(=O)(=O)c1ccccc1N1CCC(NC(=O)C2(NC(=O)c3cc4cc(OCCN5CCOCC5)ccc4o3)CCCCC2)C(=O)C1 (stereo not drawn) [Example 164, hydrochloride]
Q = CN(C)c1ccc(C(=O)NC2(C(=O)NC3CCN(c4ccc(F)cc4S(C)(=O)=O)CC3=O)CCCCC2)cc1 (stereo not drawn) [Example 171]
Ask: Kindly identify which of P and Q has the larger recorded IC50 value. Use the label to indicate which entry you chose.
Reply: Q
(Q: 0.77 nM, P: 0.52 nM)

###

Each entry below carries its reported IC50.
molecular target: Cathepsin H (Calbiochem, 219388) (Homo sapiens); construct: purchased Calbiochem 219388; assay: Selectivity study: cathepsin H (L-Arg-pNA); format: biochemical; conditions: 1 hour at 40° C., read-out: Cathepsins (IC50, nM) H
Sequence (P09668 98-335): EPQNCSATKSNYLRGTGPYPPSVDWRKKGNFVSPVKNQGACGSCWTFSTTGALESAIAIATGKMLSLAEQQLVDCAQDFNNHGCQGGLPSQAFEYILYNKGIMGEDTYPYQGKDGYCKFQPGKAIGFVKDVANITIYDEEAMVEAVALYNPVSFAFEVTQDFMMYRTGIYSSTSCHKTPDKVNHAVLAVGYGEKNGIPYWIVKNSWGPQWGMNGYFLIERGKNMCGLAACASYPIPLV

Consider the reported IC50 for these compounds:
Ask: // returns reported IC50 for input CS(=O)(=O)c1ccccc1N1CCC(NC(=O)C2(NC(=O)c3ccco3)CCCCC2)C(=O)C1 (stereo not shown)
Reply: > 2460 nM

Ask: Now give it for CS(=O)(=O)c1ccccc1N1CCC(NC(=O)C2(NC(=O)c3cc4ccccc4o3)CCCCC2)C(=O)C1 (stereo not shown) too.
Reply: > 240 nM

Ask: Now give it for CS(=O)(=O)c1cc(F)ccc1N1CCC(NC(=O)C2(NC(=O)c3ccco3)CCCCC2)C(=O)C1 (stereo not shown) too.
Reply: > 810 nM

Ask: Now give it for O=C(NC1(C(=O)NC2CCN(c3ccccc3N3CC=CC3)CC2=O)CCCCC1)c1cc2ccccc2o1 (stereo not shown) too.
Reply: > 1000 nM

Ask: Now give it for O=C(NC1(C(=O)NC2CCN(c3ccccc3[N+](=O)[O-])CC2=O)CCCCC1)c1cc2ccccc2o1 (stereo not shown) too.
Reply: > 1000 nM

More entries:
Ask: // returns reported IC50 for input CNC(=O)c1ccccc1N1CCC(NC(=O)C2(NC(=O)c3cc4ccccc4o3)CCCCC2)C(=O)C1 (stereo not shown)
Reply: > 1000 nM

Ask: Now give it for COc1ccc(N2CCC(NC(=O)C3(NC(=O)c4ccco4)CCCCC3)C(=O)C2)c(S(C)(=O)=O)c1 (stereo not shown) too.
Reply: > 1000 nM

###

target: Recombinant human Cathepsin S (Homo sapiens, UniProt P25774); test: Selectivity study: cathepsin S (Z-Val-Val-AMC); type: biochemical; conditions: 30 minutes at 37° C., read-out: Cathepsins (IC50, nM) S
Sequence (P25774 115-331): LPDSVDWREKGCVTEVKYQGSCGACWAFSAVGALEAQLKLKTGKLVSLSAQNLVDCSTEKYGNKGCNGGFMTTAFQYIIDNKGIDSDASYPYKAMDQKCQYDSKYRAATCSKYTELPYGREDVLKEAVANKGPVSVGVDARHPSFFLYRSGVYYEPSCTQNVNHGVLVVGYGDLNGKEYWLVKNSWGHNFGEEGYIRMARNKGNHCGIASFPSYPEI
measured attribute: IC50 (nM)

Ask: // returns reported IC50 for input CS(=O)(=O)c1cc(F)ccc1N1CCC(NC(=O)C2(NC(=O)c3ccc(F)cc3)CCCCC2)C(=O)C1 (stereo not drawn) [Example 147]
Reply: 214

Ask: Now give it for COc1ccc(N2CCC(NC(=O)C3(NC(=O)c4ccco4)CCCCC3)C(=O)C2)c(S(C)(=O)=O)c1 (stereo not drawn) [Example 84] too.
Reply: 212

a = O=C(NC1(C(=O)NC2CCN(c3ccccc3[N+](=O)[O-])CC2=O)CCCCC1)c1cc2ccccc2o1 (stereo not drawn) [Example 2]
b = CC(C)S(=O)(=O)c1ccccc1N1CCC(NC(=O)C2(NC(=O)c3ccco3)CCCCC2)C(=O)C1 (stereo not drawn) [Example 80]
Ask: Kindly identify which of a and b has the larger recorded IC50 value. Use the label to indicate which entry you chose.
Reply: a

A = O=C(NC1(C(=O)NC2CCN(c3ccccc3N3CCCC3=O)CC2=O)CCCCC1)c1cc2ccccc2o1 (stereo not drawn) [Example 44]
B = O=C(NC1(C(=O)NC2CCN(c3ccccc3N3CC=CC3)CC2=O)CCCCC1)c1cc2ccccc2o1 (stereo not drawn) [Example 57]
Ask: Look at A and B . Which one has the lower recorded IC50 number? Use the label to indicate which entry you chose.
Reply: A

###

Biological target: Recombinant human cathepsin K (Homo sapiens)
Sequence (P43235 115-329): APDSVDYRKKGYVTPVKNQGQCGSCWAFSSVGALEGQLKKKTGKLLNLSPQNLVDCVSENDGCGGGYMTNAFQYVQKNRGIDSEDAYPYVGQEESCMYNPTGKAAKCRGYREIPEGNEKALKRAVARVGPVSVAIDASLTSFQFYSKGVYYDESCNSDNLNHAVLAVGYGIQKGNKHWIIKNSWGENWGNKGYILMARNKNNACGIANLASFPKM
Test: Inhibition of cathepsin K activity (Z-Phe-Arg-AMC fluorescence assay)
Conditions: 25 uM Z-Phe-Arg-AMC, pH 5.5, 1 hour at 37° C.
Structures can show the parent of a compound that is named as a salt.
measured attribute: IC50 (nM)

Ask: // returns reported IC50 for input Cc1cc(C(=O)NC2(C(=O)NC3CCN(c4ccccc4S(C)(=O)=O)CC3=O)CCCCC2)oc1C (stereo not shown) [Example 125]
Reply: 6.8

1 = CC(C)Oc1ccccc1N1CCC(NC(=O)C2(NC(=O)c3cc4ccccc4o3)CCCCC2)C(=O)C1 (stereo not shown) [Example 41]
2 = O=C(NC1(C(=O)NC2CCN(c3ccccc3N3CCCC3=O)CC2=O)CCCCC1)c1cc2ccccc2o1 (stereo not shown) [Example 44]
3 = CS(=O)(=O)c1ccccc1N1CCC(NC(=O)C2(NC(=O)c3ccc(OCCN4CCCC4)cc3)CCCCC2)C(=O)C1 (stereo not shown) [Example 159, hydrochloride]
Ask: Reorder: IC50, max to min. Put the labels in the requested order and list them out.
Reply: 1, 2, 3

###

Target: Recombinant human cathepsin K (Homo sapiens)
Sequence (P43235 115-329): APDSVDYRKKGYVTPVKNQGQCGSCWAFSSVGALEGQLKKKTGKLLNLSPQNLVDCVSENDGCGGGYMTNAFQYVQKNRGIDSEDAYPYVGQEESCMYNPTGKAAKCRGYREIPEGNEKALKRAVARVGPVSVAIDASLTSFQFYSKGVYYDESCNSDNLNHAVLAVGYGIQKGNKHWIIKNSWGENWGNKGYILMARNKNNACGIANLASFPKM
Assay: Inhibition of cathepsin K activity (Z-Phe-Arg-AMC fluorescence assay)
Settings: 25 uM Z-Phe-Arg-AMC, pH 5.5, 1 hour at 37° C.
measured attribute: IC50 (nM)

Ask: // returns reported IC50 for input CCS(=O)(=O)c1ccccc1N1CCC(NC(=O)C2(NC(=O)c3cc(C)on3)CCCCC2)C(=O)C1 (stereo not shown)
Reply: 8.07

I = CC[S+]([O-])c1ccccc1N1CCC(NC(=O)C2(NC(=O)c3cc4ccccc4o3)CCCCC2)C(=O)C1 (stereo not shown)
II = COc1ccc(N2CCC(NC(=O)C3(NC(=O)c4ccco4)CCCCC3)C(=O)C2)c(S(C)(=O)=O)c1 (stereo not shown)
Ask: Look at I and II . Which one has the lower recorded IC50 number? Use the label to indicate which entry you chose.
Reply: I
(I: 1.59 nM, II: 6.24 nM)

a = CS(=O)(=O)c1ccccc1N1CCC(NC(=O)C2(NC(=O)c3ccc(Cl)s3)CCCCC2)C(=O)C1 (stereo not shown)
b = CS(=O)(=O)Nc1cc(F)ccc1N1CCC(NC(=O)C2(NC(=O)c3ccc(OCCN4CCOCC4)cc3)CCCCC2)C(=O)C1 (stereo not shown)
c = COc1ccc(N2CCC(NC(=O)C3(NC(=O)c4ccc(F)cc4)CCCCC3)C(=O)C2)c(S(C)(=O)=O)c1 (stereo not shown)
Ask: Reorder: IC50, max to min. Put the labels in the requested order and list them out.
Reply: c, a, b

###

target: Cathepsin L (Calbiochem, 219402) (Homo sapiens, UniProt P07711); construct: purchased Calbiochem 219402; test: Selectivity study: cathepsin L (Z-Phe-Arg-AMC); type: biochemical; settings: 1 hour at 25° C., read-out: Cathepsins (IC50, nM) L
Sequence (P07711 114-333): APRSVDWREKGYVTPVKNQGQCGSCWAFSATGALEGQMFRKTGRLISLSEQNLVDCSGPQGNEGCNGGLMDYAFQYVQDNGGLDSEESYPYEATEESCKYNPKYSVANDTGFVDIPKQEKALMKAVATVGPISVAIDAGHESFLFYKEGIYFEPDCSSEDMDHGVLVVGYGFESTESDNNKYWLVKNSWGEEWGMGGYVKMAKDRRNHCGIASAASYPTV
measured attribute: IC50 (nM)

a = COc1ccc(N2CCC(NC(=O)C3(NC(=O)c4ccc(F)cc4)CCCCC3)C(=O)C2)c(S(C)(=O)=O)c1 (stereo not drawn) [Example 148]
b = CS(=O)(=O)c1ccccc1N1CCC(NC(=O)C2(NC(=O)c3ccco3)CCCCC2)C(=O)C1 (stereo not drawn) [Example 76]
Ask: Look at a and b . Which one has the lower recorded IC50 number? Use the label to indicate which entry you chose.
Reply: a
(a: 178 nM, b: 971 nM)

1 = CS(=O)(=O)c1ccccc1N1CCC(NC(=O)C2(NC(=O)c3cc4ccccc4o3)CCCCC2)C(=O)C1 (stereo not drawn) [Example 1]
2 = CS(=O)(=O)c1cc(F)ccc1N1CCC(NC(=O)C2(NC(=O)c3ccc(F)cc3)CCCCC2)C(=O)C1 (stereo not drawn) [Example 147]
Ask: Kindly identify which of 1 and 2 has the larger recorded IC50 value. Use the label to indicate which entry you chose.
Reply: 2
(2: 249 nM, 1: 138 nM)
